Hey, just so you know, these numbers are from paper PMC9482650.

# target.or.test.system: T1, DLG3_1, Q92796
# T1 sequence (Q92796 125-227, limits assumed, looked up): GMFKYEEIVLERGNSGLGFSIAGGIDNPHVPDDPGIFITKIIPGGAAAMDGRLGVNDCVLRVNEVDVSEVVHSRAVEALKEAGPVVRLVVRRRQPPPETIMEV
# protocol.text: holdup assay
# Parameters: key: below the threshold = too weak to quantify, mostly under pKd 3.1 to 4
# reported.conditions: plain residues with an end cap or a label only (N-terminal biotin on a linker: ado-ado)

- binder: "STKRKLASAV [NCF1, P14598]"
  pKd: 3.49
- binder: "APIAGFSSFV [SDK2, Q58EX2]"
  pKd: 3.88
- binder: "LESTTVGTSV [KARS1, Q15046]"
  pKd: 3.98
- binder: "NIAESLESLV [PTPRZ1, P23471]"
  pKd: 4.29
- binder: "PPGKHLVTEV [KCNA7, Q96RP8]"
  pKd: 4.21
- binder: "VKRNSKETVV [MARCHF3, Q86UD3]"
  pKd: 4.77
- binder: "REEPDHSTEV [CCRL2, O00421]"
  pKd: 4.26
- binder: "NVYGIESVKI [GRIA2, P42262]"
  pKd: 3.5
